Biological target: T1, Human CD19-his protein (human, UniProt P15391 20-291)
T1 construct: bought protein; also called human CD19 protein; recombinant human CD19-His; not shown: His tag
T1 sequence (looked up): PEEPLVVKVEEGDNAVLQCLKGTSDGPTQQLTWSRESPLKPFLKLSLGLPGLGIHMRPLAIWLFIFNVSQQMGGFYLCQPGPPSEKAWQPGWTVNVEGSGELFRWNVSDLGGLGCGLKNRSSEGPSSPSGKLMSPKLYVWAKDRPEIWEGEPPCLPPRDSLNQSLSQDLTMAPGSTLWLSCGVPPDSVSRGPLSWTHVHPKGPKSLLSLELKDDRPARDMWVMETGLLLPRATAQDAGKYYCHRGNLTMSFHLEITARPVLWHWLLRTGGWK
Assay: ELISA, antibody at 100 nM
Please provide measured OD450 for the entries that follow.

| BINDER | OD450 |
| --- | --- |
| F6.2.9 (antibody, human IgG1, V domains shown, human-murine chimeric antibody, human IgG1) VH: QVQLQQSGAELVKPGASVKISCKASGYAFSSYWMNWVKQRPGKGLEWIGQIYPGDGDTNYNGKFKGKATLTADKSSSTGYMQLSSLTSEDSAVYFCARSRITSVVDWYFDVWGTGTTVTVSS VL: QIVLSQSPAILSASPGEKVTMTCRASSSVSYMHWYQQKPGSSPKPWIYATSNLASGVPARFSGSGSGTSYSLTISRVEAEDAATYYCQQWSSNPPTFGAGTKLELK | 0.33 |

Turning now to a further record.
Give its OD450 value. Item: F5.8.6 (antibody, human IgG1, V domains shown, human-murine chimeric antibody, human IgG1) VH: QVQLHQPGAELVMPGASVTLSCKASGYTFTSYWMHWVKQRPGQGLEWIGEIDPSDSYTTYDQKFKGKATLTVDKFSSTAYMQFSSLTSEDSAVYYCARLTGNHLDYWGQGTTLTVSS VL: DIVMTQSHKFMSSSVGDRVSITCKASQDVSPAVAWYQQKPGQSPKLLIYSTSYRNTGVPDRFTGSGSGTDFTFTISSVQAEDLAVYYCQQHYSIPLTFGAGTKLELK
0.96
